Recorded values, source the RNAGym collection of RNA variant scans (doi:10.7554/elife.80360).

# self-cleavage per record follows
B1: CPEB3 Ribozyme (parent)
chain: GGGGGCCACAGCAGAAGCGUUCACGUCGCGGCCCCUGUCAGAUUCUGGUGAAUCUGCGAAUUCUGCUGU

variants of: B1; assay: self-cleavage, relative activity (ratio to wild type); higher = more cleavage; co-transcriptional
PROPERTY_NAME: self-cleavage

INSERT INTO results (entry_sequence, numeric_readout) VALUES
  ('GGGGGCCACAGCAGAAGCGUCCACGUCGCGGCCCCUGCCAGAUUCUGGUGAAUCUGCGAAUUCUGCUGU [U21C U38C]', 0.808),
  ('GGGGGCCACAGCAGAAGCGGUCACGUCGCGGCCCCUGUCAGAUUCUGGUGAAUCUGCGUAUUCUGCUGU [U20G A59U]', 0.176),
  ('GGGGGCCACAGCAGAAGCGUUCACGUCGCGGCCCCUGUCAGAUUCUGGUGAAUCUGCGAACUCUCCUGU [U61C G65C]', 0.339),
  ('GGGGGCCACAGCAGAAGCGUUCACGUCGCGGCCCCUGUCAGAUUGUGGUGAAUCAGCGAAUUCUGCUGU [C45G U55A]', 0.797),
  ('GGGGGCCACAGCAGAAGCGUUCAAGUCGCGGCCCCUGUCAGAUUCUGGUGCAUCUGCGAAUUCUGCUGU [C24A A51C]', 0.68),
  ('GGGGGCCACAGCAGAAGCGUUAACGUCGCGGCCCUUGUCAGAUUCUGGUGAAUCUGCGAAUUCUGCUGU [C22A C35U]', 0.138),
  ('GGGGGCCACAGCAGAAGCGUUCACGUCGCGGCCCCUGUUAGAUUCUGGUGAAUCUGCGAAUUAUGCUGU [C39U C63A]', 0.54),
  ('GGGCGCCACAGCAGAAGCGUUCACGUCGCGGCCCGUGUCAGAUUCUGGUGAAUCUGCGAAUUCUGCUGU [G4C C35G]', 0.0833),
  ('GAGGGCCACAGCAGAAGCGUUCACGUCGCGGCCCCUGUCAGAUUCUGGUGAAUCUGCGAAUGCUGCUGU [G2A U62G]', 0.129),
  ('GGGGGCCACAGCAGAAGCGUUCACGUCGGGGCACCUGUCAGAUUCUGGUGAAUCUGCGAAUUCUGCUGU [C29G C33A]', 0.212),
  ('GGGGGCCACAGCAGAAGCGUUCACGUCGCGGCCCGUGUCAGAUCCUGGUGAAUCUGCGAAUUCUGCUGU [C35G U44C]', 0.357),
  ('GGGGGCCACAGCAGAAGCGUUCACGUCGCGGCCCCUGUCAGAUUCUGGUCAAUCUGCGUAUUCUGCUGU [G50C A59U]', 0.767),
  ('GGGGGCCACAGCAGAAGCGUUCACGUCGCUGCCCCUGUCAGAUUCUGGUGGAUCUGCGAAUUCUGCUGU [G30U A51G]', 0.4),
  ('GGGGGCCACAGCAGAAGCGUUCACGUCGCGGCCCCUAUCAGAUUCUGGGGAAUCUGCGAAUUCUGCUGU [G37A U49G]', 0.37),
  ('GGGGGCCACAGCAGAAGCGUUCACGUCGCGGCCCGUGUCAGAUUCUGGUGAAUGUGCGAAUUCUGCUGU [C35G C54G]', 0.348),
  ('GGGGGCCACAGCAGAUGCGUUCACGUCACGGCCCCUGUCAGAUUCUGGUGAAUCUGCGAAUUCUGCUGU [A16U G28A]', 0.0797),
  ('GGGGGCCACAGCAGACGCGUUCACGUCGCGGCCCCUGUCAGAUUCUGGUGAAUCGGCGAAUUCUGCUGU [A16C U55G]', 0.204),
  ('GGUGGCCACAGCAUAAGCGUUCACGUCGCGGCCCCUGUCAGAUUCUGGUGAAUCUGCGAAUUCUGCUGU [G3U G14U]', 0.0458),
  ('GGGGGCCACAGCAGAAGCGUUGACGUCGCGGCCCCUGUCAGAUUCUGGUGCAUCUGCGAAUUCUGCUGU [C22G A51C]', 0.151),
  ('GGGGGCCACAGCAGAAGCGUUCACGUCGCGGCACCUGUCAGAUUCUGGUGAAUCUGCGAAUUCUGCAGU [C33A U67A]', 0.977),
  ('GGGGGCCACAGCAGCAGCGUUCACGUCGCGGCCCAUGUCAGAUUCUGGUGAAUCUGCGAAUUCUGCUGU [A15C C35A]', 0.229),
  ('GGGGGCCACAGCAGAAGCGUUCACGUCGCGGCCCCUGUCAGUUUCUGGUGAAUCUGCGAUUUCUGCUGU [A42U A60U]', 0.436);
